# Test system: 695427-040-R-J1-PDC complex spheroid viability
# methodDescription: Anticancer human tumor 695427-040-R-J1-PDC patient-derived colon adenocarcinoma cell line growth inhibition [RAS]
# conditionParameters: second compound 0.003 µM; first compound 0.1 µM; hits give low values
# Excerpt: RAS pathway inhibitors in Combinations in Complex Spheroids A high-throughput screen of multi-cell type tumor spheroids was designed to identify active combinations of RAS pathway inhibitors and targeted small molecules. Complex spheroids include a stromal component modeled by human endothelial cells (HUVEC) and fibroblasts modeled by human mesenchymal stem cells (MSCs). […] Compounds. […] If the clinical Cmax for an agent had not been determined, the highest concentration tested was 10 microM. […]
Rule: viability, T/C below 70% gives 1.0, anything at or above gives 0.0.

Answered cases to consult:
C[C@@H](NC(=O)c1ncnc(N)c1Cl)c1ncc(C(=O)Nc2cc(C(F)(F)F)c(Cl)cn2)s1 + CCn1c(-c2cccnc2C(C)OC)c2c3cc(ccc31)N1CCOC(CC(NC(=O)C(C(C)C)N(C)C(=O)C3(F)CCN(C(=O)C#CC(C)(C)N(C)C)CC3)C(=O)N3CCCC(N3)C(=O)OCC(C)(C)C2)C1 : 0.0
Nc1ccn(C2OC(CO)C(O)C2(F)F)c(=O)n1 (configuration not stated) + CCn1c(-c2cc(N3CCN(C)CC3)cnc2C(C)OC)c2c3cc(ccc31)-c1csc(n1)CC(NC(=O)C1CC1C)C(=O)N1CCCC(N1)C(=O)OCC(C)(C)C2 : 1.0
C=CC(=O)N1CCN(c2nc(OCC3CCCN3C)nc3c(F)c(-c4nc(N)cc(C)c4C(F)(F)F)c(Cl)cc23)C(C)C1 (configuration not stated) + CCn1c(-c2cccnc2C(C)OC)c2c3cc(ccc31)N1CCOC(CC(NC(=O)C(C(C)C)N(C)C(=O)C3(F)CCN(C(=O)C#CC(C)(C)N(C)C)CC3)C(=O)N3CCCC(N3)C(=O)OCC(C)(C)C2)C1 : 0.0
CCN1CCN(Cc2ccc(Nc3ncc(F)c(-c4cc(F)c5nc(C)n(C(C)C)c5c4)n3)nc2)CC1 + CCn1c(-c2cccnc2C(C)OC)c2c3cc(ccc31)N1CCOC(CC(NC(=O)C(C(C)C)N(C)C(=O)C3(F)CCN(C(=O)C#CC(C)(C)N(C)C)CC3)C(=O)N3CCCC(N3)C(=O)OCC(C)(C)C2)C1 : 0.0

Dear reviewer, please state whether C=CC(=O)Nc1cc(Nc2nccc(-c3cn(C)c4ccccc34)n2)c(OC)cc1N(C)CCN(C)C + CCn1c(-c2cc(N3CCN(C)CC3)cnc2C(C)OC)c2c3cc(ccc31)-c1csc(n1)CC(NC(=O)C1CC1C)C(=O)N1CCCC(N1)C(=O)OCC(C)(C)C2 has viability, T/C strictly beneath 70%. 0.0

* * *

# Tested on: 695427-040-R-J1-PDC complex spheroid viability
# methodDescription: Anticancer human tumor 695427-040-R-J1-PDC cell line growth inhibition [RAS];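 also: viability read after seven days of drug exposure; 100% = DMSO vehicle control viability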
# conditionParameters: second compound 0.0949 µM; first compound 0.00316 µM; hits give low values
Rule: viability, T/C below 50% gives y, anything at or above gives n.

Answered cases to consult:
CCN1CCN(Cc2ccc(Nc3ncc(F)c(-c4cc(F)c5nc(C)n(C(C)C)c5c4)n3)nc2)CC1 + CCn1c(-c2cccnc2C(C)OC)c2c3cc(ccc31)N1CCOC(CC(NC(=O)C(C(C)C)N(C)C(=O)C3(F)CCN(C(=O)C#CC(C)(C)N(C)C)CC3)C(=O)N3CCCC(N3)C(=O)OCC(C)(C)C2)C1 : n
O=C(c1ccc(F)c(F)c1Nc1ccc(I)cc1F)N1CC(O)([C@@H]2CCCCN2)C1 + CCn1c(-c2cc(N3CCN(C)CC3)cnc2C(C)OC)c2c3cc(ccc31)-c1csc(n1)CC(NC(=O)C1CC1C)C(=O)N1CCCC(N1)C(=O)OCC(C)(C)C2 : y
O=C(c1ccc(F)c(F)c1Nc1ccc(I)cc1F)N1CC(O)([C@@H]2CCCCN2)C1 + CCn1c(-c2cccnc2C(C)OC)c2c3cc(ccc31)N1CCOC(CC(NC(=O)C(C(C)C)N(C)C(=O)C3(F)CCN(C(=O)C#CC(C)(C)N(C)C)CC3)C(=O)N3CCCC(N3)C(=O)OCC(C)(C)C2)C1 : n
CCN1CCN(Cc2ccc(Nc3ncc(F)c(-c4cc(F)c5nc(C)n(C(C)C)c5c4)n3)nc2)CC1 + CCn1c(-c2cc(N3CCN(C)CC3)cnc2C(C)OC)c2c3cc(ccc31)-c1csc(n1)CC(NC(=O)C1CC1C)C(=O)N1CCCC(N1)C(=O)OCC(C)(C)C2 : n
C=CC(=O)N1CCN(c2nc(OCC3CCCN3C)nc3c(F)c(-c4nc(N)cc(C)c4C(F)(F)F)c(Cl)cc23)C(C)C1 (stereo not drawn) + CCn1c(-c2cc(N3CCN(C)CC3)cnc2C(C)OC)c2c3cc(ccc31)-c1csc(n1)CC(NC(=O)C1CC1C)C(=O)N1CCCC(N1)C(=O)OCC(C)(C)C2 : n

Dear reviewer, please state whether Nc1ccn(C2OC(CO)C(O)C2(F)F)c(=O)n1 (stereo not drawn) + CCn1c(-c2cc(N3CCN(C)CC3)cnc2C(C)OC)c2c3cc(ccc31)-c1csc(n1)CC(NC(=O)C1CC1C)C(=O)N1CCCC(N1)C(=O)OCC(C)(C)C2 has viability, T/C strictly beneath 50%. y

Dear reviewer, please state whether CC(C)n1nc(-c2ccc3oc(N)nc3c2)c2c(N)ncnc21 + CCn1c(-c2cc(N3CCN(C)CC3)cnc2C(C)OC)c2c3cc(ccc31)-c1csc(n1)CC(NC(=O)C1CC1C)C(=O)N1CCCC(N1)C(=O)OCC(C)(C)C2 has viability, T/C strictly beneath 50%. y

Dear reviewer, please state whether C=CC(=O)Nc1cc(Nc2nccc(-c3cn(C)c4ccccc34)n2)c(OC)cc1N(C)CCN(C)C + CCn1c(-c2cccnc2C(C)OC)c2c3cc(ccc31)N1CCOC(CC(NC(=O)C(C(C)C)N(C)C(=O)C3(F)CCN(C(=O)C#CC(C)(C)N(C)C)CC3)C(=O)N3CCCC(N3)C(=O)OCC(C)(C)C2)C1 has viability, T/C strictly beneath 50%. n

* * *

# Lookup of reported viability, T/C keyed by entry
# System: 695427-040-R-J1-PDC complex spheroid viability
# methodDescription: Anticancer human tumor 695427-040-R-J1-PDC cell line growth inhibition [RAS];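 also: viability read after seven days of drug exposure; 100% = DMSO vehicle control viability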
# conditionParameters: second compound 0.0949 µM; first compound 0.1 µM; hits give low values
Please give a number only; it is taken to be in %.

# annotated cases, reported viability, T/C shown
CCC(CC)c1cc(NC2CCC(N)C2)n2nccc2n1 (stereo not drawn) + CCn1c(-c2cccnc2C(C)OC)c2c3cc(ccc31)N1CCOC(CC(NC(=O)C(C(C)C)N(C)C(=O)C3(F)CCN(C(=O)C#CC(C)(C)N(C)C)CC3)C(=O)N3CCCC(N3)C(=O)OCC(C)(C)C2)C1 : 83.1
C[C@@H](NC(=O)c1ncnc(N)c1Cl)c1ncc(C(=O)Nc2cc(C(F)(F)F)c(Cl)cn2)s1 + CCn1c(-c2cccnc2C(C)OC)c2c3cc(ccc31)N1CCOC(CC(NC(=O)C(C(C)C)N(C)C(=O)C3(F)CCN(C(=O)C#CC(C)(C)N(C)C)CC3)C(=O)N3CCCC(N3)C(=O)OCC(C)(C)C2)C1 : 97.3
C=CC(=O)N1CCN(c2nc(OCC3CCCN3C)nc3c(F)c(-c4nc(N)cc(C)c4C(F)(F)F)c(Cl)cc23)C(C)C1 (stereo not drawn) + CCn1c(-c2cccnc2C(C)OC)c2c3cc(ccc31)N1CCOC(CC(NC(=O)C(C(C)C)N(C)C(=O)C3(F)CCN(C(=O)C#CC(C)(C)N(C)C)CC3)C(=O)N3CCCC(N3)C(=O)OCC(C)(C)C2)C1 : 84.4

Input O=C(c1ccc(F)c(F)c1Nc1ccc(I)cc1F)N1CC(O)([C@@H]2CCCCN2)C1 + CCn1c(-c2cccnc2C(C)OC)c2c3cc(ccc31)N1CCOC(CC(NC(=O)C(C(C)C)N(C)C(=O)C3(F)CCN(C(=O)C#CC(C)(C)N(C)C)CC3)C(=O)N3CCCC(N3)C(=O)OCC(C)(C)C2)C1 . Output viability, T/C: 43.1

Input Nc1ccn(C2OC(CO)C(O)C2(F)F)c(=O)n1 (stereo not drawn) + CCn1c(-c2cccnc2C(C)OC)c2c3cc(ccc31)N1CCOC(CC(NC(=O)C(C(C)C)N(C)C(=O)C3(F)CCN(C(=O)C#CC(C)(C)N(C)C)CC3)C(=O)N3CCCC(N3)C(=O)OCC(C)(C)C2)C1 . Output viability, T/C: 73.5

Input CC(C)NCC(C(=O)N1CCN(c2ncnc3c2C(C)CC3O)CC1)c1ccc(Cl)cc1 (stereo not drawn) + CCn1c(-c2cc(N3CCN(C)CC3)cnc2C(C)OC)c2c3cc(ccc31)-c1csc(n1)CC(NC(=O)C1CC1C)C(=O)N1CCCC(N1)C(=O)OCC(C)(C)C2 . Output viability, T/C: 45.1

Input CCN1CCN(Cc2ccc(Nc3ncc(F)c(-c4cc(F)c5nc(C)n(C(C)C)c5c4)n3)nc2)CC1 + CCn1c(-c2cc(N3CCN(C)CC3)cnc2C(C)OC)c2c3cc(ccc31)-c1csc(n1)CC(NC(=O)C1CC1C)C(=O)N1CCCC(N1)C(=O)OCC(C)(C)C2 . Output viability, T/C: 37

Input CC1(O)CCCC1n1c(=O)c(C(F)F)cc2cnc(NC3CCN(S(C)(=O)=O)CC3)nc21 (stereo not drawn) + CCn1c(-c2cccnc2C(C)OC)c2c3cc(ccc31)N1CCOC(CC(NC(=O)C(C(C)C)N(C)C(=O)C3(F)CCN(C(=O)C#CC(C)(C)N(C)C)CC3)C(=O)N3CCCC(N3)C(=O)OCC(C)(C)C2)C1 . Output viability, T/C: 95.7

Recorded values, source PubChem BioAssay AID2060888.
